- TEST SUMMARY: mn = molality of the nth substance listed, in mol/kg
- TEST PARAMETERS: 318.15 K; 100 kPa; Liquid; Frequency=3 MHz; Sing-around technique in a fixed-path interferometer; m1 = 0.08
Each entry below carries its reported speed of sound.

COMPOUND	READING UNIT	speed of sound
COc1cc(-c2cc(-c3ccc(O)cc3)[nH]c(=O)c2C#N)ccc1O + C[S+](C)[O-]	m/s	1424
COc1cc(-c2cc(-c3ccc(Cl)cc3)[nH]c(=O)c2C#N)ccc1O + C[S+](C)[O-]	m/s	1423.2
COc1cc(-c2cc(-c3ccccc3)[nH]c(=O)c2C#N)ccc1O + C[S+](C)[O-]	m/s	1422.6
COc1cc(-c2cc(-c3ccccc3O)[nH]c(=O)c2C#N)ccc1O + C[S+](C)[O-]	m/s	1423
